Tested on: Human immunodeficiency virus 1
Assay: Antiviral activity against HIV-1 3B infected in human MT4 cells assessed as reduction in viral replication incubated for 5 days by MTT assay
Format: functional, organism-based
Details: Human immunodeficiency virus 1, 3B, MT4, 120 h
property name: pIC50
When answering, recall that pIC50 equals minus log10 of the concentration in mol/L, and write that number alone.

Take a look at these entries with their results.
{"columns": ["compound", "pIC50"],
 "data": [
  ["[N-]=[N+]=NCc1ccc(C(=O)CC(=O)C(=O)O)cc1CN=[N+]=[N-]", 4.84],
  ["[N-]=[N+]=NCc1cccc(C(=O)CC(=O)C(=O)O)c1", 5.68]
]}

Please turn your attention to the following entry.
Query: Entry [N-]=[N+]=NCc1cc(CN=[N+]=[N-])cc(C(=O)CC(=O)C(=O)O)c1 : reported pIC50 = ?
Reply: 5.30
